# Species on record: Rattus norvegicus
# measurementProtocol: Open TG-GATES - Regimen: Daily Repeat
# Format: toxicity, organism-based, Sprague-Dawley
# Design: regimen Daily Repeat, gender Male, age 6 weeks
# runConditions: in vivo, po, 0 mg/kg, […], tissue Plasma, route gavage, dose level Control, time 7 day
Collected K values appear next to each entry.
valueKind: K (meq/L)

compound	quantityUnit	experimentalValue
NNC(=O)c1ccncc1 [ISONIAZID]	meq/L	5
O=C(CCCN1CCC(O)(c2ccc(Cl)cc2)CC1)c1ccc(F)cc1 [HALOPERIDOL]	meq/L	4.6
CC(C)OC(=O)C(C)(C)Oc1ccc(C(=O)c2ccc(Cl)cc2)cc1 [FENOFIBRATE]	meq/L	4.3
CCOC(=O)CCC(=O)O[C@H]1[C@H](O[C@@H]2[C@@H](C)[C@H](O[C@H]3C[C@@](C)(OC)[C@@H](O)[C@H](C)O3)[C@@H](C)C(=O)O[C@H](CC)[C@@](C)(O)[C@H](O)[C@@H](C)C(=O)[C@H](C)C[C@@]2(C)O)O[C@H](C)C[C@@H]1N(C)C [ERYTHROMYCIN ETHYLSUCCINATE]	meq/L	4.3
CN(C)CCN(Cc1cccs1)c1ccccn1	meq/L	4.4
COC1=CC(=O)C[C@@H](C)[C@]12Oc1c(Cl)c(OC)cc(OC)c1C2=O [GRISEOFULVIN]	meq/L	3.9
CN(C)CCCN1c2ccccc2CCc2ccccc21 [IMIPRAMINE]	meq/L	4

----------
# Species on record: Rattus norvegicus
# measurementProtocol: Open TG-GATES - Regimen: Single
# Assay type: toxicity, organism-based, Sprague-Dawley
# Design: regimen Single, gender Male, age 6 weeks
# runConditions: in vivo, po, 0 mg/kg, 3 h, tissue Kidney, route gavage, dose level Control
valueKind: KIDNEY_L (g)

compound	experimentalValue
CC/C(=C(\c1ccccc1)c1ccc(OCCN(C)C)cc1)c1ccccc1	0.9
CC1=C(/C=C/C(C)=C/C=C/C(C)=C/CO)C(C)(C)CCC1	0.9
COc1ccc2[nH]c([S+]([O-])Cc3ncc(C)c(OC)c3C)nc2c1 (centres undefined)	0.9
CC(C)OC(=O)C(C)(C)Oc1ccc(C(=O)c2ccc(Cl)cc2)cc1 [FENOFIBRATE]	0.8

----------
# Species on record: Rattus norvegicus
# measurementProtocol: Open TG-GATES - Regimen: Single
# Type: toxicity, organism-based, Sprague-Dawley
# Parameters: regimen Single, gender Male, age 6 weeks
# runConditions: in vivo, po, 0 mg/kg, 9 h, route gavage, dose level Control
valueKind: TERMINAL_BW (g)

compound	experimentalValue
CN(C)CCCN1c2ccccc2CCc2ccc(Cl)cc21	213.6
CCCNC(=O)NS(=O)(=O)c1ccc(Cl)cc1 [CHLORPROPAMIDE]	194.8
O=C(CCCN1CCC(O)(c2ccc(Cl)cc2)CC1)c1ccc(F)cc1	199.3
CC/C(=C(\c1ccccc1)c1ccc(OCCN(C)C)cc1)c1ccccc1	194.3
C[C@@H]1C[C@H]2[C@@H]3CCC4=CC(=O)C=C[C@]4(C)[C@@]3(F)[C@@H](O)C[C@]2(C)[C@@]1(O)C(=O)CO	215.1
NC(N)=Nc1nc(CSCCC(N)=NS(N)(=O)=O)cs1	209.9

----------
# Species: Rattus norvegicus
# measurementProtocol: Open TG-GATES - Regimen: Single
# Assay type: toxicity, organism-based, Sprague-Dawley
# Design: regimen Single, gender Male, age 6 weeks
# runConditions: in vivo, po, 0 mg/kg, 3 h, tissue Plasma, route gavage, dose level Control

compound	ALP / IU/L
COc1ccc2[nH]c([S+]([O-])Cc3ncc(C)c(OC)c3C)nc2c1 (stereo not given)	855.8
O=C(CCCN1CCC(O)(c2ccc(Cl)cc2)CC1)c1ccc(F)cc1	1053.2
Cc1ccc(C)c(OCCCC(C)(C)C(=O)O)c1	1456
CCOc1ccc(NC(=O)CC(C)O)cc1 (stereo not given)	1389.8
CC1=C(/C=C/C(C)=C/C=C/C(C)=C/CO)C(C)(C)CCC1	1760.6

----------
# Organism: Rattus norvegicus
# measurementProtocol: Open TG-GATES - Regimen: Single
# Type: toxicity, organism-based, Sprague-Dawley
# Design: regimen Single, gender Male, age 6 weeks
# runConditions: in vivo, po, 0 mg/kg, 3 h, tissue Blood, route gavage, dose level Control
valueKind: MCHC (%)

compound	experimentalValue
CC/C(=C(\c1ccccc1)c1ccc(OCCN(C)C)cc1)c1ccccc1	33.2
CN1C(=O)CN=C(c2ccccc2)c2cc(Cl)ccc21	33.3
CC(C)OC(=O)C(C)(C)Oc1ccc(C(=O)c2ccc(Cl)cc2)cc1 [FENOFIBRATE]	32.5
COc1ccc2[nH]c([S+]([O-])Cc3ncc(C)c(OC)c3C)nc2c1 (stereo not given)	33.9
CN(C)CCCN1c2ccccc2CCc2ccc(Cl)cc21	32.3

----------
# Species: Rattus norvegicus
# measurementProtocol: Open TG-GATES - Regimen: Single
# Format: toxicity, organism-based, Sprague-Dawley
# Parameters: regimen Single, gender Male, age 6 weeks
# runConditions: in vivo, po, 0 mg/kg, 6 h, tissue Liver, route gavage, dose level Control
Collected LIVER values appear next to each entry.

molecule	LIVER
COC1=CC(=O)C[C@@H](C)[C@]12Oc1c(Cl)c(OC)cc(OC)c1C2=O [GRISEOFULVIN]	9 g
NC(N)=Nc1nc(CSCCC(N)=NS(N)(=O)=O)cs1 [FAMOTIDINE]	9.3 g
CC(C)OC(=O)C(C)(C)Oc1ccc(C(=O)c2ccc(Cl)cc2)cc1 [FENOFIBRATE]	7.2 g

----------
# Species: Rattus norvegicus
# measurementProtocol: Open TG-GATES - Regimen: Daily Repeat
# Format: toxicity, organism-based, Sprague-Dawley
# Parameters: regimen Daily Repeat, gender Male, age 6 weeks
# runConditions: in vivo, po, 0 mg/kg, […], tissue Liver, route gavage, dose level Control, time 7 day

smilesText	quantityUnit	LIVER
CN1C(=O)CN=C(c2ccccc2)c2cc(Cl)ccc21	g	14.8
CC1=C(/C=C/C(C)=C/C=C/C(C)=C/CO)C(C)(C)CCC1	g	12.5
NNC(=O)c1ccncc1	g	12.3
COC1=CC(=O)C[C@@H](C)[C@]12Oc1c(Cl)c(OC)cc(OC)c1C2=O	g	12.6
CN(C)CCN(Cc1cccs1)c1ccccn1	g	10.9

----------
# Species on record: Rattus norvegicus
# measurementProtocol: Open TG-GATES - Regimen: Single
# Assay type: toxicity, organism-based, Sprague-Dawley
# Parameters: regimen Single, gender Male, age 6 weeks
# runConditions: in vivo, po, 1000 mg/kg, 6 h, tissue Blood, route gavage, dose level High
Collected Plat values appear next to each entry.
valueKind: Plat (x10_4/uL)

compound	valueKind	experimentalValue
CCOC(=O)CCC(=O)O[C@H]1[C@H](O[C@@H]2[C@@H](C)[C@H](O[C@H]3C[C@@](C)(OC)[C@@H](O)[C@H](C)O3)[C@@H](C)C(=O)O[C@H](CC)[C@@](C)(O)[C@H](O)[C@@H](C)C(=O)[C@H](C)C[C@@]2(C)O)O[C@H](C)C[C@@H]1N(C)C [ERYTHROMYCIN ETHYLSUCCINATE]	Plat	134.9
COc1ccc2[nH]c([S+]([O-])Cc3ncc(C)c(OC)c3C)nc2c1 (stereo not drawn)	Plat	129.9
NC(N)=Nc1nc(CSCCC(N)=NS(N)(=O)=O)cs1	Plat	112.6

----------
# Species: Rattus norvegicus
# measurementProtocol: Open TG-GATES - Regimen: Single
# Format: toxicity, organism-based, Sprague-Dawley
# Set-up: regimen Single, gender Male, age 6 weeks
# runConditions: in vivo, po, 0 mg/kg, 9 h, tissue Plasma, route gavage, dose level Control
valueKind: TBIL (mg/dL)

compound	valueKind	experimentalValue
CC/C(=C(\c1ccccc1)c1ccc(OCCN(C)C)cc1)c1ccccc1	TBIL	0.05
NC(N)=Nc1nc(CSCCC(N)=NS(N)(=O)=O)cs1	TBIL	0.1
COc1ccc2[nH]c([S+]([O-])Cc3ncc(C)c(OC)c3C)nc2c1 (stereo not given)	TBIL	0.1
NNC(=O)c1ccncc1	TBIL	0.1
COC1=CC(=O)C[C@@H](C)[C@]12Oc1c(Cl)c(OC)cc(OC)c1C2=O	TBIL	0.1

----------
Collected KIDNEY_R values appear next to each entry.
# Species on record: Rattus norvegicus
# measurementProtocol: Open TG-GATES - Regimen: Daily Repeat
# Assay type: toxicity, organism-based, Sprague-Dawley
# Design: regimen Daily Repeat, gender Male, age 6 weeks
# runConditions: in vivo, po, 0 mg/kg, […], tissue Kidney, route gavage, dose level Control, time 7 day

compound	quantityUnit	KIDNEY_R
NC(N)=Nc1nc(CSCCC(N)=NS(N)(=O)=O)cs1	g	1.1
CCCNC(=O)NS(=O)(=O)c1ccc(Cl)cc1 [CHLORPROPAMIDE]	g	1.1
COc1ccc2[nH]c([S+]([O-])Cc3ncc(C)c(OC)c3C)nc2c1 (centres undefined)	g	1.2
NNC(=O)c1ccncc1	g	1.1
